Biological target: human p38 kinase alpha (Homo sapiens, UniProt Q16539)
Construct: GST (N, cleaved yes); made in house; host or cells: E. coli DH10B
Sequence (Q16539 whole entry): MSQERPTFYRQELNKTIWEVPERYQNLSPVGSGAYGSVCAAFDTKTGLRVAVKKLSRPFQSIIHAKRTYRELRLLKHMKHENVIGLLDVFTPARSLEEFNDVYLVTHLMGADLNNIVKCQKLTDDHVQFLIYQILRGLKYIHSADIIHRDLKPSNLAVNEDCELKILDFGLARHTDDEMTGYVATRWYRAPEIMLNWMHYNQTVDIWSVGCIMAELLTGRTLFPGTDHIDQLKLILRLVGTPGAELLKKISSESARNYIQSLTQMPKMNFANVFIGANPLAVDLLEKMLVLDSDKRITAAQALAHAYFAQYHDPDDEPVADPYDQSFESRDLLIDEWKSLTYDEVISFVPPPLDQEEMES
Experiment: p38 kinase in vitro assay, phosphorylation of biotinylated PHAS-I with 32P-ATP
Type: biochemical
Details: @ 10.0 uM
measured attribute: P38 alpha kinase % inhib @ conc.

Query: Tell me its P38 alpha kinase % inhib @ conc. on human p38 kinase alpha (Homo sapiens, UniProt Q16539): Cc1c(-c2ccncc2)c(-c2ccc(F)cc2)nn1CC(=O)NC(Cc1ccccc1)c1ccccc1 (centres unmarked) [Example B-2320]
Response: 44.0% @

Query: Tell me its P38 alpha kinase % inhib @ conc. on human p38 kinase alpha (Homo sapiens, UniProt Q16539): COC(=O)[C@H](COCc1ccccc1)NC(=O)Cn1nc(-c2ccc(F)cc2)c(-c2ccncc2)c1C [Example B-2359]
Response: 76.0% @

Query: Tell me its P38 alpha kinase % inhib @ conc. on human p38 kinase alpha (Homo sapiens, UniProt Q16539): COC(=O)C(C)NC(=O)Cn1nc(-c2ccc(F)cc2)c(-c2ccncc2)c1C (centres unmarked) [Example B-2363]
Response: 44.0% @

Query: Tell me its P38 alpha kinase % inhib @ conc. on human p38 kinase alpha (Homo sapiens, UniProt Q16539): CCCCC(C)NC(=O)Cn1nc(-c2ccc(F)cc2)c(-c2ccncc2)c1C (centres unmarked) [Example B-2319]
Response: 75.0% @

Query: Tell me its P38 alpha kinase % inhib @ conc. on human p38 kinase alpha (Homo sapiens, UniProt Q16539): CCCCCc1cccc(C(C)NC(=O)Cn2nc(-c3ccc(F)cc3)c(-c3ccncc3)c2C)c1 (centres unmarked) [Example B-2354]
Response: 65.0% @

Query: Tell me its P38 alpha kinase % inhib @ conc. on human p38 kinase alpha (Homo sapiens, UniProt Q16539): Cc1c(-c2ccncc2)c(-c2ccc(F)cc2)nn1CC(=O)NC(C)c1ccc(Br)cc1 (centres unmarked) [Example B-2344]
Response: 71.0% @

Query: Tell me its P38 alpha kinase % inhib @ conc. on human p38 kinase alpha (Homo sapiens, UniProt Q16539): CCN(CC)C(=O)Cn1nc(-c2ccc(F)cc2)c(-c2ccncc2)c1C [Example B-2371]
Response: 54.0% @

Query: Tell me its P38 alpha kinase % inhib @ conc. on human p38 kinase alpha (Homo sapiens, UniProt Q16539): Cc1c(-c2ccncc2)c(-c2ccc(F)cc2)nn1CC(=O)NC1CCC(C(C)(C)C)CC1 (centres unmarked) [Example B-2350]
Response: 38.0% @

Query: Tell me its P38 alpha kinase % inhib @ conc. on human p38 kinase alpha (Homo sapiens, UniProt Q16539): Cc1c(-c2ccncc2)c(-c2ccc(F)cc2)nn1CC(=O)NC1CC1 [Example B-2341]
Response: 75.0% @

Query: Tell me its P38 alpha kinase % inhib @ conc. on human p38 kinase alpha (Homo sapiens, UniProt Q16539): Cc1c(-c2ccncc2)c(-c2ccc(F)cc2)nn1CC(=O)NC1CCc2ccccc21 (centres unmarked) [Example B-2318]
Response: 73.0% @

Query: Tell me its P38 alpha kinase % inhib @ conc. on human p38 kinase alpha (Homo sapiens, UniProt Q16539): Cc1c(-c2ccncc2)c(-c2ccc(F)cc2)nn1CC(=O)NC1Cc2ccccc2C1 [Example B-2321]
Response: 69.0% @

Query: Tell me its P38 alpha kinase % inhib @ conc. on human p38 kinase alpha (Homo sapiens, UniProt Q16539): Cc1c(-c2ccncc2)c(-c2ccc(F)cc2)nn1CC(=O)NC(C)Cc1c[nH]c2ccccc12 (centres unmarked) [Example B-2328]
Response: 65.0% @

Query: Tell me its P38 alpha kinase % inhib @ conc. on human p38 kinase alpha (Homo sapiens, UniProt Q16539): Cc1c(-c2ccncc2)c(-c2ccc(F)cc2)nn1CC(=O)NC1CCCCC1 [Example B-2347]
Response: 49.0% @

Query: Tell me its P38 alpha kinase % inhib @ conc. on human p38 kinase alpha (Homo sapiens, UniProt Q16539): Cc1c(-c2ccncc2)c(-c2ccc(F)cc2)nn1CC(=O)NC1CCC1 [Example B-2330]
Response: 81.0% @

Query: Tell me its P38 alpha kinase % inhib @ conc. on human p38 kinase alpha (Homo sapiens, UniProt Q16539): COCC(C)NC(=O)Cn1nc(-c2ccc(F)cc2)c(-c2ccncc2)c1C (centres unmarked) [Example B-2325]
Response: 60.0% @

Query: Tell me its P38 alpha kinase % inhib @ conc. on human p38 kinase alpha (Homo sapiens, UniProt Q16539): CC[C@H](C)[C@H](NC(=O)Cn1nc(-c2ccc(F)cc2)c(-c2ccncc2)c1C)C(=O)OC [Example B-2353]
Response: 38.0% @

Query: Tell me its P38 alpha kinase % inhib @ conc. on human p38 kinase alpha (Homo sapiens, UniProt Q16539): COC(=O)C(NC(=O)Cn1nc(-c2ccc(F)cc2)c(-c2ccncc2)c1C)C(C)C (centres unmarked) [Example B-2365]
Response: 82.0% @
